- assay.protocol: solubility pre-screen in an aqueous, acidic milieu; note: test concentration or dose not given here
- Type: physicochemical
Where a SMILES comes first, the peptide text is derived from it.
test.readout: Solubility test

compound: CC[C@H](C)[C@H](NC(=O)[C@H](CC(N)=O)NC(=O)[C@@H](N)CCCNC(=N)N)C(=O)N[C@@H](CCC(N)=O)C(=O)N[C@H](C(=O)N[C@@H](CCCNC(=N)N)C(=O)NCC(=O)N[C@@H](CC(C)C)C(=O)N[C@@H](CCCCN)C(=O)N[C@@H](CCC(N)=O)C(=O)N[C@@H](CCSC)C(=O)N[C@@H](CCCCN)C(=O)N[C@@H](CCCNC(=N)N)C(=O)N[C@H](C(=O)NCC(=O)O)C(C)C)C(C)C [HDM34] (H-RNIQVRGLKQMKRVG-OH; N-terminus and C-terminus assumed)
recorded.measurement: YES

====

- assay.protocol: solubility pre-screen in an aqueous, acidic milieu; note: test concentration or dose not given here
- Assay type: physicochemical
Where a SMILES comes first, the peptide text is derived from it.
test.readout: Solubility test

compound: CSCC[C@H](NC(=O)[C@@H]1CCCN1C(=O)[C@H](CC(=O)O)NC(=O)[C@H](Cc1ccccc1)NC(=O)[C@@H](NC(=O)[C@H](CCC(=O)O)NC(=O)[C@H](CO)NC(=O)[C@@H](N)CCCCN)[C@@H](C)O)C(=O)N[C@@H](CCCCN)C(=O)N[C@H](C(=O)N1CCC[C@H]1C(=O)N[C@@H](CC(=O)O)C(=O)N[C@@H](Cc1c[nH]cn1)C(=O)N[C@@H](CO)C(=O)N[C@@H](CC(=O)O)C(=O)O)C(C)C [HDM29B] (H-KSETFDPMKVPDHSD-OH)
test.readout: Solubility test
recorded.measurement: YES
--
compound: CC[C@H](C)[C@H](NC(=O)CNC(=O)[C@@H](NC(=O)[C@@H](N)Cc1c[nH]cn1)[C@@H](C)CC)C(=O)N[C@H](C(=O)N[C@@H](CC(=O)O)C(=O)N[C@@H](CC(C)C)C(=O)N[C@@H](CCCCN)C(=O)NCC(=O)N[C@@H](CCC(=O)O)C(=O)N[C@@H](CC(C)C)C(=O)N[C@@H](CC(=O)O)C(=O)N[C@@H](CCSC)C(=O)N[C@@H](CCCNC(=N)N)C(=O)N[C@@H](CC(N)=O)C(=O)O)[C@@H](C)CC [HDM31A] (H-HIGIIDLKGELDMRN-OH)
test.readout: Solubility test
recorded.measurement: YES

Origin of values: patent US9340580B2
